Where these numbers come from: ChEMBL document CHEMBL3244169

test system: Mus musculus; assay: Neuroleptic activity in ip dosed ICR-DUB mouse assessed as survival administered 1 hr prior to d-amphetamine challenge measured after 24 hrs; type: functional
Assign ED50 to each entry below.
Give bare numbers, in mg/kg.

O=C(CCCN1CCC(O)(c2ccc(Cl)cc2)CC1)c1ccc(F)cc1    0.09
O.O=C(O)/C=C/C(=O)O.O=C(c1ccc(F)cc1)C1CCN(CCCN2c3ccccc3Sc3ccccc32)CC1    0.94
OC1(c2ccc(Cl)c(C(F)(F)F)c2)CCN(CCCC(c2ccc(F)cc2)c2ccc(F)cc2)CC1    1.28
CN(C)CCCN1c2ccccc2Sc2ccc(Cl)cc21    0.28

Note: attention shifts to another entry.
Quick one: give measured ED50 for O=C(O)/C=C/C(=O)O.O=C(c1ccc(F)cc1)C1CCN(CCCN2c3ccccc3Sc3ccc(Cl)cc32)CC1
0.17
